Consider the following compounds and their measured AC50 readings.
# tgt: Microphthalmia-associated transcription factor (Homo sapiens)
# Sequence (O75030 whole entry): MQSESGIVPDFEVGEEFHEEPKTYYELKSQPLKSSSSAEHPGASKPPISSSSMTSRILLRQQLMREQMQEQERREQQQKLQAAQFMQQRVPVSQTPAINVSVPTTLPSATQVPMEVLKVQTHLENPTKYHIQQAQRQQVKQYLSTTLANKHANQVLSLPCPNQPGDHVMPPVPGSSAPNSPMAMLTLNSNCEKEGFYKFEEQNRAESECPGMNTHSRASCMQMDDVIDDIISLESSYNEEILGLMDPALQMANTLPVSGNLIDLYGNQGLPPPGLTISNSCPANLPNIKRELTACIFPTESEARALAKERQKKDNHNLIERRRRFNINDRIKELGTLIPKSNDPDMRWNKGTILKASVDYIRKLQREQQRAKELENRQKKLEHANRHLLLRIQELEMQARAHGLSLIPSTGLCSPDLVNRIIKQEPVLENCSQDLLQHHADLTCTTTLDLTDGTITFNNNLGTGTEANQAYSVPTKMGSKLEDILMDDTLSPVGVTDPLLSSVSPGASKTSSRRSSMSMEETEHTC
# procedureText: reducers of TRPM1 reporter luminescence, concentration series – cell-based, SK-MEL-5, cherry-picked, set 3, MITF inhibitor project, dose response (AID 493073);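 further: SK-MEL-5 melanoma cells with luciferase driven by the MITF target TRPM1 promoter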
# Type: functional
The source made the active and inactive calls.

[
  {
    "compound": "Cn1cccc1C(=O)NC(=O)COC(=O)c1ccc(S(C)(=O)=O)c([N+](=O)[O-])c1",
    "result": "9.23 µM (active)"
  },
  {
    "compound": "O=C(COC(=O)c1ccccc1C(=O)c1ccc(Cl)c([N+](=O)[O-])c1)NC1CC1",
    "result": "8.92 µM (active)"
  },
  {
    "compound": "O=C(CNc1ccc2ccccc2c1)N/N=C/c1ccc([N+](=O)[O-])o1",
    "result": "4.95 µM (active)"
  },
  {
    "compound": "Cn1cc(C(=O)N/N=C/c2c(O)ccc3ccccc23)ccc1=O",
    "result": "2.55 µM (active)"
  }
]

Request: Kindly indicate its recorded AC50. Item: c1ccc(C[n+]2cccc3c4ccccc4ccc32)cc1
Response: 3.41 µM (active)

Request: Supply reported AC50 belonging to this compound: O=C(Cn1ncc(Cl)c(Cl)c1=O)N1CCN(Cc2ccccc2)CC1
Response: 10.9 µM (active)

Request: Return AC50 (reported value) for this compound: CCN1CCc2c(sc(NC(=O)c3ccc(S(=O)(=O)N4CCCCCC4)cc3)c2C(=O)NC)C1
Response: 16.6 µM (active)

Request: Item Cc1ccc(NC(=O)c2cc3ccccc3oc2=O)cc1S(=O)(=O)N(C)C : provide AC50
Response: 0.03 µM (active)

Request: Supply reported AC50 belonging to this compound: CCOc1c(Br)cc(CNC2CCCCCCC2)cc1OC
Response: 20.5 µM (active)

Request: Provide only the value of recorded AC50 for CCOC(=O)/C=c1\s/c(=C\c2ccc3cc(OC)ccc3c2)c(=O)n1CC(=O)NCC1CCCO1 (configuration not stated)
Response: 5.73 µM (active)

Request: Recall and state the measured AC50 for CN(c1ccc2nc3ccccc3c(=O)n2n1)C1CCCCC1 .
Response: 1.29 µM (active)

Request: Look up AC50 of CCOc1cc(/C=C2/NC(=S)NC2=O)ccc1OCc1ccc([N+](=O)[O-])cc1 and report it.
Response: 8.19 µM (active)

====

# tgt: Corticotropin-releasing factor receptor 2/Corticotropin-releasing factor-binding protein (Homo sapiens, UniProt P24387+Q13324)
# Sequence (Q13324 whole entry): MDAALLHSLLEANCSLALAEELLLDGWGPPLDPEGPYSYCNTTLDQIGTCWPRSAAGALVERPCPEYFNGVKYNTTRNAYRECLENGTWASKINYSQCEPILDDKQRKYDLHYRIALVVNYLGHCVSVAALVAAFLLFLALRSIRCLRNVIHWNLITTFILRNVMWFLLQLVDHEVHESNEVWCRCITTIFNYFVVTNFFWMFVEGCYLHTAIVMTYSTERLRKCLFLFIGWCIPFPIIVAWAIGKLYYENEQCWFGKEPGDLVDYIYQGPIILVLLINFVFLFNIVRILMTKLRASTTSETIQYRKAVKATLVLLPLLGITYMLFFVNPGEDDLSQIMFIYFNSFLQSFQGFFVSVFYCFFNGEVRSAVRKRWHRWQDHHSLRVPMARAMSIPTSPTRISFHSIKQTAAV
# Sequence (P24387 whole entry): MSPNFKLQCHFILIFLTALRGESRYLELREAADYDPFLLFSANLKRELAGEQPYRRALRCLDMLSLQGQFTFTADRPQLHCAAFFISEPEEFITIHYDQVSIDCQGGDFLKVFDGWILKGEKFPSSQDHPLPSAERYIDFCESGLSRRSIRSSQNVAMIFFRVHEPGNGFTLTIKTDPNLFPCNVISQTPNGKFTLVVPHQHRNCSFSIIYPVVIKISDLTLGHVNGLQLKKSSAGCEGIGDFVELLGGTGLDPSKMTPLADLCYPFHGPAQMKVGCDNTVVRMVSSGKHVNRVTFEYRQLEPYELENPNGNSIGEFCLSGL
# procedureText: activators of CRF receptor 2 with binding protein – uHTS hits, confirmation (AID 602473)
# Type: functional
# assayConditions: read-out: EC50_Mean
Calls of active or inactive are those of the source.
Allowed answers: True (active), False (inactive)

Field: example entries. Status: answers known.
[
  {
    "molecule": "O=C(CNS(=O)(=O)c1cccs1)NCCc1ccc(Cl)cc1",
    "labelValue": "False"
  },
  {
    "molecule": "O=C(Nc1cccc2ncccc12)c1ccc2c(c1)OCCO2",
    "labelValue": "False"
  },
  {
    "molecule": "Cc1noc(/C=C/c2ccc(-c3ccccc3Cl)o2)c1[N+](=O)[O-]",
    "labelValue": "True"
  },
  {
    "molecule": "CCCCCCCCCCCC(=O)NC(Cc1ccc(OC)c([N+](=O)[O-])c1)C(=O)O (stereo unspecified)",
    "labelValue": "False"
  },
  {
    "molecule": "CC(C(=O)Nc1sccc1C(N)=O)N1C(=O)C2CC=CCC2C1=O (stereo unspecified)",
    "labelValue": "False"
  }
]

Request: # outcome recorded in this test, key = COC(=O)C1=CN(Cc2ccc(OC)cc2)C=C(C(=O)OC)C1c1cccs1
Response: False

Request: # outcome recorded in this test, key = CCOP(=O)(OCC)c1cc(CC)ccc1O
Response: False

Request: Answer briefly: the call reported for O=C(Nc1cccnc1)c1ccc(-c2ccc(Cl)cc2)o1 in this assay.
Response: False

Request: Call for entry Cc1ccc(S(=O)(=O)N(Cc2ccccc2)c2ccccc2C(=O)NCc2ccco2)cc1 :
Response: False

Request: Please indicate how the test categorized COc1ccc(NC(=O)CCCCC(=O)Nc2ccc(OC)cc2OC)c(OC)c1 .
Response: False

Request: How did this test come out for O=C(NCc1ccc(OC(F)(F)F)cc1)c1cccc2c1C(=O)c1ccc(N3CCCCC3)cc1S2(=O)=O ?
Response: True
